# assay overview: self-splicing fitness, log relative to wild type (ln ratio); higher = more splicing; Tetrahymena group I intron in knt gene, E. coli kanamycin selection, DiMSum; sequences stand for … in CUCUCU…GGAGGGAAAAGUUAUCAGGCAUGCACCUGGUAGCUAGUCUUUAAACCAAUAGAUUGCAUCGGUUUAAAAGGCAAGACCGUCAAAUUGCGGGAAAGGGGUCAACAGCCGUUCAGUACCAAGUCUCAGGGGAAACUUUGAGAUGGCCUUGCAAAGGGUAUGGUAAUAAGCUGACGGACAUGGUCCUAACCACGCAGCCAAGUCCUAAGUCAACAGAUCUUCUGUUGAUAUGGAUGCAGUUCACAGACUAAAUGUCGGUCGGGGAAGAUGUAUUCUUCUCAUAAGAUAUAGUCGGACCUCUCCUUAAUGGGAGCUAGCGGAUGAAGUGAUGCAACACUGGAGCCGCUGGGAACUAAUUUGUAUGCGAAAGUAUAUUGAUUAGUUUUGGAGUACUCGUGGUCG;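 also: selection with 25 µg/mL kanamycin versus none on LB agar overnight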
# study conditions: 30 °C
Definition: the class of an entry is the range in Low: < -3; Medium: ≥ -3 and < -2; High: ≥ -2 that contains its self-splicing fitness (ln).

> print(dat)
         record.sequence     cat
 1  GGAGAGCAAUAUUACGGGAG     Low
 2  CGCAAGCAAUAUUACGCGAA     Low
 3  CCCAAGCAAUAUUACGCAUA     Low
 4  UUAAAGCAAUAUUACGGACU    High
 5  CAGGAGCAAUAUUACGUGAC  Medium
 6  CCUCAGCAAUAUUACGAAGU     Low
 7  AUAGAGCAAUAUUACGCGCU  Medium
 8  GUGAAGCAAUAUUACGUAUC    High
 9  CACCAGCAAUAUUACGUAUA     Low
10  AUAGAGCAAUAUUACGCAGA  Medium
11  GAUGAGCAAUAUUACGGACC    High
12  UGAAAGCAAUAUUACGGCGU    High
13  AGAUAGCAAUAUUACGUUGG     Low
14  AGCAAGCAAUAUUACGGGGC     Low
15  UGCAAGCAAUAUUACGACUC  Medium
16  UUAGAGCAAUAUUACGGUAA    High
17  CGAUAGCAAUAUUACGCUGA  Medium
18  UGGAAGCAAUAUUACGGGUG    High
19  UAUUAGCAAUAUUACGCCGA  Medium
20  AAAGAGCAAUAUUACGAAGC    High
21  ACCCAGCAAUAUUACGCCUG  Medium
22  AUCCAGCAAUAUUACGCCAG    High
23  CGAGAGCAAUAUUACGUGUU     Low
24  UGCCAGCAAUAUUACGUCUG  Medium
25  GGAUAGCAAUAUUACGUGGC  Medium
26  CAACAGCAAUAUUACGCCUA  Medium
27  UUAGAGCAAUAUUACGCAAU  Medium
28  CCAGAGCAAUAUUACGAGAU     Low
29  GUGAAGCAAUAUUACGGCGC    High
30  GCUUAGCAAUAUUACGUCUU    High
31  UUGAAGCAAUAUUACGAUAG    High
32  GAUUAGCAAUAUUACGGCCU    High
33  GACAAGCAAUAUUACGAUGG  Medium
